- Measurement Protocol: Lipophilic-hydrophilic balance, Rm of the compound by reversed-phase chromatographic analysis
- Assay type: physicochemical
Returns: string. Value is rule met if measured Rm is below 0.4, and rule not met if it is greater than or equal to it.

Request: Problem: For the compound c1ccc2c(NCCCCCNc3c4ccccc4nc4ccccc34)c3ccccc3nc2c1 , is Rm under 0.4?
Response: rule met

Request: Problem: For the compound Cl.c1ccc(OCCCCCCCOc2ccccc2Nc2c3ccccc3nc3ccccc23)c(Nc2c3ccccc3nc3ccccc23)c1 , is Rm under 0.4?
Response: rule not met

Request: Problem: For the compound CS(=O)(=O)Nc1ccc(Nc2ccnc3ccccc23)cc1 , is Rm under 0.4?
Response: rule met

Request: Problem: For the compound c1ccc2c(NCCCCCCCCCCCCCCCCNc3c4ccccc4nc4ccccc34)c3ccccc3nc2c1 , is Rm under 0.4?
Response: rule not met

Request: Problem: For the compound CCOc1cc(NS(C)(=O)=O)ccc1Nc1c2ccccc2nc2ccccc12 , is Rm under 0.4?
Response: rule met

Request: Problem: For the compound Cl.O.O=S(=O)(CCCNc1c2ccccc2nc2ccccc12)Nc1ccc(Nc2c3ccccc3nc3ccccc23)cc1 , is Rm under 0.4?
Response: rule met

Request: Problem: For the compound Cl.c1ccc(OCCCCCCCCNc2ccnc3ccccc23)c(Nc2c3ccccc3nc3ccccc23)c1 , is Rm under 0.4?
Response: rule not met

Request: Problem: For the compound Cl.O.c1ccc(OCCCCCCNc2ccnc3ccccc23)c(Nc2c3ccccc3nc3ccccc23)c1 , is Rm under 0.4?
Response: rule not met

Request: Problem: For the compound COc1cc(NS(=O)(=O)CCCCS(=O)(=O)Nc2ccc(Nc3c4ccccc4nc4ccccc34)c(OC)c2)ccc1Nc1c2ccccc2nc2ccccc12 , is Rm under 0.4?
Response: rule met
